meta.source: ChEMBL document CHEMBL4828702

- ASSAY SYSTEM: Solute carrier family 22 member 1 (Homo sapiens)
- PROTOCOL SUMMARY: Substrate activity at human OCT1 expressed in HEK293 cells assessed as increase in compound uptake by measuring intrinsic clearance incubated for 2 mins by LC-MS/MS analysis
// classify(record): look up clearance in ranges lower band: < 20 mL/min/g; central band: ≥ 20 mL/min/g and < 100 mL/min/g; upper band: ≥ 100 mL/min/g

Solved entries (count: 6):
> print(dat)
                                   molecule         class
1  C[N+]1(CCC(C(N)=O)(c2ccccc2)c2ccccc2)CCCCC1    upper band
2                 C[N+]1(C)CCN(c2ccccc2)CC1  central band
3  CC(CCc1ccc(O)cc1)NCC(O)c1ccc(O)cc1 (configuration not stated)    upper band
4                    CNC[C@H](O)c1cccc(O)c1    lower band
5                                Nc1ccncc1N    lower band
6    NC(N)=Nc1nc(CSCC/C(N)=N/S(N)(=O)=O)cs1  central band

**Query** Hey, which category is CC[N+](CC)(CC)Cc1ccccc1 in, do you know?
**Result** central band

**Query** Another: CC(CCc1ccc(O)cc1)NCCc1ccc(O)c(O)c1 (configuration not stated)
**Result** lower band

**Query** What about this molecule? N=C(N)NC(=O)Cc1c(Cl)cccc1Cl
**Result** upper band

**Query** Same thing, different molecule: CC[N+](CC)(CC(=O)Nc1c(C)cccc1C)Cc1ccccc1
**Result** central band

**Query** How about this molecule: NCC(O)c1cccc(O)c1 (configuration not stated)
**Result** lower band
